Origin of the recorded values: ChEMBL document CHEMBL1131493

# Assay system: Protein farnesyltransferase (Homo sapiens, UniProt P49354+P49356)
# Test details: In vitro inhibition of farnesyltransferase farnesylation of the H-ras oncogene
# Type: protein-complex assay
Cut-off 300 nM on IC50: below means criterion met, at or above means criterion not met.

Previously resolved entries follow.
N[C@@H](CO)C(=O)N1CCC(CC(=O)N2CCN(C3c4ccc(Cl)cc4CCc4cc(Br)cnc43)CC2)CC1 (some centres undefined) : criterion met
CC(=O)N1CCCC(C(=O)N2CCN(C3c4ccc(Cl)cc4CCc4cccnc43)CC2)C1 (centres undefined) : criterion not met
CN1CCC(OC(=O)N2CCN(C3c4ccc(Cl)cc4CCc4cc(Br)cnc43)CC2)CC1 (centres undefined) : criterion not met
CC(C)(C)NC(=O)N1CCC(CC(=O)N2CCN(C3c4ccc(Cl)cc4CCc4cccnc43)CC2)CC1 (centres undefined) : criterion not met
NC(=O)N1CCC(CC(=O)N2CCN(C3c4ccc(Cl)cc4C=Cc4cc(Br)cnc43)CC2)CC1 (centres undefined) : criterion met

[in] Confirm or reject: IC50 of CN1CCCC(C(=O)N2CCN(C3c4ccc(Cl)cc4CCc4cccnc43)CC2)C1 (centres undefined) lies strictly below 300 nM
[out] criterion not met

[in] Consider the compound CNC(=O)N1CCC(CC(=O)N2CCN(C3c4ccc(Cl)cc4CCc4cc(Br)cnc43)CC2)CC1 (centres undefined) . Is its IC50 strictly less than 300 nM?
[out] criterion met

[in] Regarding `O=C(Oc1cccnc1)N1CCN([C@H]2c3ccc(Cl)cc3CCc3cccnc32)CC1` , kindly confirm whether its IC50 is beneath 300 nM.
[out] criterion not met

[in] Consider O=C(Nc1ccc[n+]([O-])c1)N1CCN(C2c3ccc(Cl)cc3CCc3cccnc32)CC1 (centres undefined) . Does its IC50 lie strictly below 300 nM?
[out] criterion not met

###

# Test details: Maximal plasma concentration in nude mice after 25 mg/kg oral dose
# Format: ADME, organism-based
# Design: dose 25 mg/kg, route oral
# Setup conditions: mouse
Observable: Cmax (nM)
Write the value in nM as a bare number.

CC(=O)N1CCC(CC(=O)N2CCN(C3c4ccc(Cl)cc4CCc4cc(Br)cnc43)CC2)CC1 (stereo not drawn) : 3000

// O=C(Cc1cccnc1)N1CCN(C2c3ccc(Cl)cc3CCc3cccnc32)CC1 (stereo not drawn) : Cmax value = 3900

get_value(item= CN1CCC(CC(=O)N2CCN(C3c4ccc(Cl)cc4CCc4cccnc43)CC2)CC1 (stereo not drawn) , readout=Cmax) returns 1400

###

Entries and their pIC50
# Assay system: Protein farnesyltransferase (Homo sapiens, UniProt P49354+P49356)
# Test details: In vitro inhibition of farnesyltransferase farnesylation of the H-ras oncogene
# Type: protein-complex assay
Answer as the number alone; pIC50 is minus log10 of concentration in mol/L.

CNC(=O)N1CCC[C@@H](CC(=O)N2CCN(C3c4ccc(Cl)cc4CCc4cccnc43)CC2)C1 (stereo partly specified) : 5.15
O=C(CC1CCNCC1)N1CCN(C2c3ccc(Cl)cc3C=Cc3cc(Br)cnc32)CC1 (stereo unspecified) : 7.08

The value of pIC50 measured for the molecule `CN1CCC(CC(=O)N2CCN([C@@H]3c4ccc(Cl)cc4CCc4cccnc43)CC2)CC1` turned out to be 5.74

Consider CC(C)(C)OC(=O)N1CCC(CC(=O)N2CCN(C3c4ccc(Cl)cc4CCc4cc(Br)cnc43)CC2)CC1 (stereo unspecified) . Its measured pIC50 is 5.89

Data point: CC(C)(C(=O)N1CCN(C2c3ccc(Cl)cc3CCc3cccnc32)CC1)c1ccccc1 (stereo unspecified) ; pIC50 = 5.48

Sample O=C(Cc1ccncc1)NCCNC1c2ccc(Cl)cc2CCc2cccnc21 (stereo unspecified) ; pIC50 observed: 4.59

Data point: CC(C)(C(=O)N1CCN(C2c3ccc(Cl)cc3CCc3cc(Br)cnc32)CC1)c1ccc[n+]([O-])c1 (stereo unspecified) ; pIC50 = 6.42

For reference, reported pIC50 for C[C@H](N)C(=O)N1CCC(CC(=O)N2CCN(C3c4ccc(Cl)cc4CCc4cccnc43)CC2)CC1 (stereo partly specified) stands at 5.60

Reported pIC50 of CNC(=S)N1CCC(CC(=O)N2CCN(C3c4ccc(Cl)cc4CCc4cccnc43)CC2)CC1 (stereo unspecified) : 6.06

Per the record, O=C(N1CCN(C2c3ccc(Cl)cc3CCc3cc(Br)cnc32)CC1)n1ccnc1 (stereo unspecified) has pIC50 of 5.75

Memo: CN(C)c1ccc(C(=O)N2CCN(C3c4ccc(Cl)cc4CCc4cccnc43)CC2)cc1 (stereo unspecified) , reported pIC50: 4.69

Just so you know, measured pIC50 for CC(C)(C(=O)N1CCN(C2c3ccc(Cl)cc3CCc3cc(Br)cnc32)CC1)c1cccnc1 (stereo unspecified) came out at 6.52
